# Target: Transcription factor E2F1 (Homo sapiens) (UniProt Q01094)
# Sequence (Q01094 whole entry, looked up): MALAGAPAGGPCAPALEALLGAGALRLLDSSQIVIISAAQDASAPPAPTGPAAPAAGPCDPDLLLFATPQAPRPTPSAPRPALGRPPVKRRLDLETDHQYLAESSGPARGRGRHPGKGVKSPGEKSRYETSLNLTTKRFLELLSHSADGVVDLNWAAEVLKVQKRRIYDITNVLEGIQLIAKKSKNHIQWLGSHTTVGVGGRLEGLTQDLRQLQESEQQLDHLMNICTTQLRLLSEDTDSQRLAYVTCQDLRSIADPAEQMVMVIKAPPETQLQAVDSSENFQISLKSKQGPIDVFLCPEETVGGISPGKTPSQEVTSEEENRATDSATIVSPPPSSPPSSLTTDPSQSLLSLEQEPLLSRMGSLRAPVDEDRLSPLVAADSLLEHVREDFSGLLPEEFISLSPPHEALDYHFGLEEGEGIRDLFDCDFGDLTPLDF
# Assay Overview: ATG_E2F_CIS: Attagene CIS-FACTORIAL HepG2 Assay for human E2F Transcription Factor 1 (AID 2282935)
# Conditions Used: HepG2 Attagene cis-reporter, E2F reporter RNA transcripts; actives raise or lower the signal
# Description: ATG_CIS is a cell-based, multiplexed-readout assay that uses HepG2, a human liver cell line, with measurements taken at 24 hours after chemical dosing in a 24-well plate.ATG_E2F_CIS is one of 52 assay component(s) measured or calculated from the ATG_CIS assay. […] This assay endpoint, ATG_E2F_CIS, was analyzed with bidirectional fitting relative to DMSO as the negative control and baseline of activity. […]
The source made the active and inactive calls. How the source made its calls: active means hit-call score of the fitted dose curve at least 0.9, where 1 is the maximum; inactive means score below 0.9.
Reported Endpoint: outcome

Compound: CCCCCCCCCCCCCC(=O)O
Result: inactive
//
Compound: CC(=O)O[C@]1(C(C)=O)CC[C@H]2[C@@H]3C[C@H](C)C4=CC(=O)CC[C@]4(C)[C@H]3CC[C@@]21C
Result: inactive
//
Compound: CC(C#N)(CCC(=O)O)N=NC(C)(C#N)CCC(=O)O (stereo unspecified)
Result: inactive
//
Compound: O=C(Cl)c1cccc(C(=O)Cl)c1
Result: inactive
//
Compound: CC(C)C1CCC(O)CC1 (stereo unspecified)
Result: inactive
//
Compound: Nc1cccc(S(=O)(=O)c2cccc(N)c2)c1
Result: inactive

====

// AC50 lookup, one value per entry
# Target: Glucocorticoid receptor (Homo sapiens) (UniProt P04150)
# Sequence (P04150 whole entry, looked up): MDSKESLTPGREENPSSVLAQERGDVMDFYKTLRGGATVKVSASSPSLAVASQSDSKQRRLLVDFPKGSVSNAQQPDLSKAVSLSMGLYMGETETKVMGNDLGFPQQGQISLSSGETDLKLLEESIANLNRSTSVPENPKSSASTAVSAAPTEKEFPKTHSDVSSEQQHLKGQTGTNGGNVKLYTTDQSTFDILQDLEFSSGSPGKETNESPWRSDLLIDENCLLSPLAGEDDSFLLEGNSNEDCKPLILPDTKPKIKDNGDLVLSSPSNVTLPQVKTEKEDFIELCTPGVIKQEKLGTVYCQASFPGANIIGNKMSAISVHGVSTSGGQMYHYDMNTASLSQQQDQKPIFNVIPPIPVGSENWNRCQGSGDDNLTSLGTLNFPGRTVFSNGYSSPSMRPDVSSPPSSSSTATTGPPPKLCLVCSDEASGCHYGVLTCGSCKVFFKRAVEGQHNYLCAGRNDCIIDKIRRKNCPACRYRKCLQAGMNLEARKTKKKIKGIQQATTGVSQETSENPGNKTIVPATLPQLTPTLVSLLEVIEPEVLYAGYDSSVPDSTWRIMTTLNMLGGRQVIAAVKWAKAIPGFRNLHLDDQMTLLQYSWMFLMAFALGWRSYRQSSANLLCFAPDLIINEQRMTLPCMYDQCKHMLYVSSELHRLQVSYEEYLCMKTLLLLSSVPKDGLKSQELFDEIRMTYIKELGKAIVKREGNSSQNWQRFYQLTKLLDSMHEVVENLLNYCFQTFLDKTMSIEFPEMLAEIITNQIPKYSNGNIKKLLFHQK
# Assay Overview: NVS_NR_hGR: NovaScreen (NVS) Nuclear Receptor Binding Assay for human Glucocorticoid Receptor (GR) (AID 2283363);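 further: activity is loss of specific radioligand binding signal relative to DMSO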
# Description: NVS_NR_hGR is a biochemical, single-readout assay that uses extracted gene-proteins in a cell-free assay. Measurements were taken 16 hours after chemical dosing in a 96-well plate.NVS_NR_hGR is one of one assay component(s) measured or calculated from the NVS_NR_hGR assay. […] This assay endpoint, NVS_NR_hGR, was analyzed in the positive analysis fitting direction relative to DMSO as the negative control and baseline of activity. […]
Results filed as inconclusive are left out. The source made the active and inactive calls. How the source made its calls: active means hit-call score of the fitted dose curve at least 0.9, where 1 is the maximum; inconclusive means response in the unintended direction; inactive means score below 0.9.

Smiles Record: CC(C)C[C@H]1C(=O)N2CCC[C@H]2[C@]2(O)O[C@](NC(=O)[C@@H]3C=C4c5cccc6[nH]c(Br)c(c56)C[C@H]4N(C)C3)(C(C)C)C(=O)N12
AC50: 1.44 µM (active)
//
Smiles Record: CC(=O)O[C@]1(C(C)=O)CC[C@H]2[C@@H]3C[C@H](C)C4=CC(=O)CC[C@]4(C)[C@H]3CC[C@@]21C
AC50: 0.00114 µM (active)
//
Smiles Record: CCCCCCCCCCCCCOS(=O)(=O)O
AC50: 2.94 µM (active)
//
Smiles Record: O=C1OC2(c3cc(Br)c(O)c(Br)c3Oc3c2cc(Br)c(O)c3Br)c2c(Cl)c(Cl)c(Cl)c(Cl)c21
AC50: 3.83 µM (active)

====

# Target: Nuclear receptor subfamily 4 group A member 2 (Homo sapiens) (UniProt P43354)
# Sequence (P43354 whole entry, looked up): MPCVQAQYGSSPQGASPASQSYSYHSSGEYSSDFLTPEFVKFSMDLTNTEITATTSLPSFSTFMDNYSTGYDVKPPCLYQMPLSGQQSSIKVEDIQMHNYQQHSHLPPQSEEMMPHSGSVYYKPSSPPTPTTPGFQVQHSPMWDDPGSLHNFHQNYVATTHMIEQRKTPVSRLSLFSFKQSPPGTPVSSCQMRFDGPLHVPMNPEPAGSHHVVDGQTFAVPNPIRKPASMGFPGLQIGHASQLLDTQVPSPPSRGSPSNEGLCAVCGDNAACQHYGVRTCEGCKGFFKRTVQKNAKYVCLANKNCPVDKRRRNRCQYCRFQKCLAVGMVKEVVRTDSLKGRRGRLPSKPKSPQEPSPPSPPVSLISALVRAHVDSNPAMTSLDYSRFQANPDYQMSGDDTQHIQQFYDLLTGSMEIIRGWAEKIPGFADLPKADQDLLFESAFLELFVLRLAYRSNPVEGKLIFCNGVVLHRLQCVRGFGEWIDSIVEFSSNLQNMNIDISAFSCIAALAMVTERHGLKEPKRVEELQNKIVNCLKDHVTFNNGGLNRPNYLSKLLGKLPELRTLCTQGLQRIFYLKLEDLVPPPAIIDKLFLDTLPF
# Assay Overview: ATG_NURR1_TRANS: Attagene TRANS-FACTORIAL HepG2 Assay for human Nuclear Receptor Related Protein 1 (NURR1) (AID 2282985)
# Conditions Used: HepG2 Attagene TRANS reporter, mRNA readout
Results filed as inconclusive are left out. Active and inactive are the calls of the source. The calls were made as follows: active = hit-call score of the fitted dose curve at least 0.9, where 1 is the maximum; inconclusive = response in the unintended direction; inactive = score below 0.9.
Classes used: active, inactive

Smiles Record: C=C[C@@H](C)CCC=C(C)C
Category: inactive
//
Smiles Record: Fc1c(F)c(F)c(Br)c(F)c1F
Category: inactive
//
Smiles Record: CC(C)C[C@H]1C(=O)N2CCC[C@H]2[C@]2(O)O[C@](NC(=O)[C@@H]3C=C4c5cccc6[nH]c(Br)c(c56)C[C@H]4N(C)C3)(C(C)C)C(=O)N12
Category: active
//
Smiles Record: O=C1CCCCCCCCCCOCCCCO1
Category: inactive
//
Smiles Record: CCCC[n+]1ccccc1
Category: inactive
//
Smiles Record: C[Si](O[Si](C)(C)C)O[Si](C)(C)C
Category: inactive
//
Smiles Record: COC(=O)OC
Category: inactive
//
Smiles Record: CCOc1ccccc1OCC
Category: inactive
//
Smiles Record: Cc1c(N(C)C)c(=O)n(-c2ccccc2)n1C
Category: inactive
//
Smiles Record: CCCCCCCCCCCCN
Category: inactive
//
Smiles Record: CCc1c(C)cc(N)c(CC)c1N
Category: inactive
//
Smiles Record: CC(=O)C(C)=O
Category: inactive
//
Smiles Record: C[C@]12CC[C@H]3[C@@H](CCC4=CC(=O)CC[C@@]43C)[C@@H]1CC[C@@H]2C(=O)CO
Category: inactive
